# assayedSystem: BTK enzyme (Homo sapiens, UniProt Q06187)
# Sequence (Q06187 whole entry): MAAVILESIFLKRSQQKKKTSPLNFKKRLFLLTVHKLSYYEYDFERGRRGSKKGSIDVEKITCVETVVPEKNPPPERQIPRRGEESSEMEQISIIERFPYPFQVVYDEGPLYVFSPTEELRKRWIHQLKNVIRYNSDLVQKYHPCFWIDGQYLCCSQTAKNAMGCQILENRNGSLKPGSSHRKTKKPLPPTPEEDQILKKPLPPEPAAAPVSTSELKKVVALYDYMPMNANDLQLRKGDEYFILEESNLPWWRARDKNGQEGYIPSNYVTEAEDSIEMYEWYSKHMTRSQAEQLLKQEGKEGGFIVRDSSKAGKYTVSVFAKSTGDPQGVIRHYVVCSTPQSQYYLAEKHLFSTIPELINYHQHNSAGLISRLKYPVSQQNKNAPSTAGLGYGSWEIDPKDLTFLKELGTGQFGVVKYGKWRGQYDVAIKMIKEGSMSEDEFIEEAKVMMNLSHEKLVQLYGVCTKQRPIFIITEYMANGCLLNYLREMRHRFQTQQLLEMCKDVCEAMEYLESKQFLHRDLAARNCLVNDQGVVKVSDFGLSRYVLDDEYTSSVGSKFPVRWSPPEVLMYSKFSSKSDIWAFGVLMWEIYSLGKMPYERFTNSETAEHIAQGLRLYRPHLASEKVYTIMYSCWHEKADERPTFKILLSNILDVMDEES
# measurementNotes: Z'-LYTE kinase assay, BTK enzyme activity inhibition (ThermoFisher SelectScreen)
# Format: biochemical
# measurementContext: 60 minutes reaction at room temperature, compound 1,000 nM to 0.32 nM
Checkbox rule: IC50 lower than 20 nM = Yes; IC50 not lower than 20 nM = No.

Prompt: Record C=CC(=O)N(C)CC#Cc1c(N)ncnc1-c1cc(F)cc(NC(=O)c2ccc(C3CC3)cc2F)c1C : is its IC50 strictly below 20 nM?
Completion: Yes

Prompt: Record C=CC(=O)N1CCC[C@@H]1C#Cc1c(N)ncnc1-c1cc(F)cc(-n2ccc3cc(C4CC4)cc(F)c3c2=O)c1C : is its IC50 strictly below 20 nM?
Completion: No

Prompt: Record C=CC(=O)N(C)CC#Cc1c(N)ncnc1-c1cc(F)cc(NC(=O)c2ccc(C(C)C)cc2F)c1C : is its IC50 strictly below 20 nM?
Completion: Yes

Prompt: Record C=CC(=O)N(C)CC#Cc1c(N)ncnc1-c1cc(F)cc(-n2ncc3cc(C(C)(C)C)ccc3c2=O)c1 : is its IC50 strictly below 20 nM?
Completion: No

Prompt: Record C=CC(=O)N(C)CC#Cc1c(N)ncnc1-c1cc(F)cc(-n2cnc3cc(C4CC4)cc(F)c3c2=O)c1 : is its IC50 strictly below 20 nM?
Completion: No

Prompt: Record C=CC(=O)N1CCC[C@H]1C#Cc1c(N)ncnc1-c1cc(F)cc(-n2ccc3cc(C4CC4)cc(F)c3c2=O)c1C : is its IC50 strictly below 20 nM?
Completion: Yes

Prompt: Record C=CC(=O)N(C)CC#Cc1c(N)ncnc1-c1cc(F)cc(-n2ccc3cc(C4CC4)cc(F)c3c2=O)c1 : is its IC50 strictly below 20 nM?
Completion: Yes

Prompt: Record C=CC(=O)N(C)CC#Cc1c(N)ncnc1-c1cc(F)cc(-n2ccc3cc(C4CC4)cc(F)c3c2=O)c1C : is its IC50 strictly below 20 nM?
Completion: Yes

Prompt: Record C=CC(=O)N(C)CC#Cc1c(N)ncnc1-c1cc(C)cc(-n2ccc3cc(C4CC4)cc(F)c3c2=O)c1C : is its IC50 strictly below 20 nM?
Completion: Yes

Prompt: Record C=CC(=O)N1CCC[C@H]1C#Cc1c(N)ncnc1-c1cc(F)cc(-n2ccc3cc(C(C)C)cc(F)c3c2=O)c1C : is its IC50 strictly below 20 nM?
Completion: Yes
